# Tested on: common (oilseed) sunflower
# protocol_text: Test C pre-/postemergence herbicide test
# Format: in vivo, Helianthus annuus
# measurement_setup: 250 g ai/ha; scale 0-100; preemergence
# Text: […]
Please go through the items and note down their Plant response rating, Sunflower.
Answers are plain numbers.

molecule	quantity	reported_value
CCOC(=O)c1cccc(NC(=O)c2nn(C(C)(C)CC)nc2CC)c1	Plant response rating, Sunflower	0
CCn1nc(C(C)(C)C)cc1C(=O)Nc1cc(C(=S)N(C)C)ccn1	Plant response rating, Sunflower	55
CCc1nn(C(C)(C)C)nc1C(=O)Nc1cccc(C(=S)N(C)C)c1	Plant response rating, Sunflower	50
CCN(C)C(=O)c1ccc(F)c(NC(=O)C2CC(C(C)(C)C)=NN2CC)c1 (racemic)	Plant response rating, Sunflower	60
CCNC(=O)c1cccc(NC(=O)c2cc(C3(C)CC3)nn2CC)c1	Plant response rating, Sunflower	0

# ---- query molecule ----
Exercise: Name the reported Plant response rating, Sunflower value associated with the molecule CCc1nn(C(C)(C)C)cc1C(=O)Nc1cc(C(=O)N(CC)CC)ccc1F
Key: 0
